Data origin, for the record: the supplement of paper PMC10307832

Can you tell me relative viability for the items I'm about to list?
tested on: NCI-H1993; assay: relative viability (nuclei count vs DMSO), 5 days (fraction); higher = more cells survive; details: first compound 0.1581 µM
Numbers only.

Below, each entry is followed by its recorded relative viability result.
Compound	Target System	relative viability
COc1cc2nccc(Oc3ccc(NC(=O)Nc4cc(C)on4)c(Cl)c3)c2cc1OC [Tivozanib] + C[C@]1(O)C[C@@H](c2nc(-c3ccc4ccc(-c5ccccc5)nc4c3)c3c(N)nccn32)C1 [Linsitinib] (partner 1 µM)	NCI-H1993	0.638
Nc1ccn([C@@H]2O[C@H](CO)[C@@H](O)[C@@H]2O)c(=O)n1 [Cytarabine] + CC1(C)CCC(c2ccc(Cl)cc2)=C(CN2CCN(c3ccc(C(=O)NS(=O)(=O)c4ccc(N[C@H](CCN5CCOCC5)CSc5ccccc5)c(S(=O)(=O)C(F)(F)F)c4)cc3)CC2)C1 [Navitoclax] (partner 0.5 µM)	NCI-H1993	0.548
Nc1ccn([C@@H]2O[C@H](CO)[C@@H](O)[C@@H]2O)c(=O)n1 [Cytarabine] + Cc1nc(Nc2ncc(C(=O)Nc3c(C)cccc3Cl)s2)cc(N2CCN(CCO)CC2)n1 [Dasatinib] (partner 0.075 µM)	NCI-H1993	0.49
Nc1ccn([C@@H]2O[C@H](CO)[C@@H](O)[C@@H]2O)c(=O)n1 [Cytarabine] + CC(=O)c1c(C)c2cnc(Nc3ccc(N4CCNCC4)cn3)nc2n(C2CCCC2)c1=O [Palbociclib] (partner 0.5 µM)	NCI-H1993	0.507
Nc1ccn([C@@H]2O[C@H](CO)[C@@H](O)[C@@H]2O)c(=O)n1 [Cytarabine] + Nc1ncn([C@H]2C[C@H](O)[C@@H](CO)O2)c(=O)n1 [Decitabine] (partner 2 µM)	NCI-H1993	0.471

input: Recorded relative viability for Nc1ccn([C@@H]2O[C@H](CO)[C@@H](O)[C@@H]2O)c(=O)n1 [Cytarabine] + CS(=O)(=O)CCNCc1ccc(-c2ccc3ncnc(Nc4ccc(OCc5cccc(F)c5)c(Cl)c4)c3c2)o1 [Lapatinib] (partner 2 µM) with NCI-H1993, please?
output: 0.618

====

tested on: NCI-H322M; assay: relative viability (nuclei count vs DMSO), 5 days (fraction); higher = more cells survive; settings: first compound 0.04 µM
Quantity: relative viability
One number for each entry.

Compound	relative viability
Cc1sc2c(c1C)C(c1ccc(Cl)cc1)=N[C@@H](CC(=O)OC(C)(C)C)c1nnc(C)n1-2 [JQ1] + Nc1ncn([C@H]2C[C@H](O)[C@@H](CO)O2)c(=O)n1 [Decitabine] (partner 2 µM)	0.631
Cc1sc2c(c1C)C(c1ccc(Cl)cc1)=N[C@@H](CC(=O)OC(C)(C)C)c1nnc(C)n1-2 [JQ1] + CC(=O)c1c(C)c2cnc(Nc3ccc(N4CCNCC4)cn3)nc2n(C2CCCC2)c1=O [Palbociclib] (partner 0.5 µM)	0.477
Cc1sc2c(c1C)C(c1ccc(Cl)cc1)=N[C@@H](CC(=O)OC(C)(C)C)c1nnc(C)n1-2 [JQ1] + COc1cccc2cc(-c3nc([C@H]4CC[C@H](C(=O)O)CC4)n4ncnc(N)c34)[nH]c12 [OSI-027] (partner 0.5 µM)	0.518

In the following, a different compound is considered.
input: Recorded relative viability for Cc1sc2c(c1C)C(c1ccc(Cl)cc1)=N[C@@H](CC(=O)OC(C)(C)C)c1nnc(C)n1-2 [JQ1] + COc1cc2c(Oc3ccc(NC(=O)C4(C(=O)Nc5ccc(F)cc5)CC4)cc3F)ccnc2cc1OCCCN1CCOCC1 [Foretinib] (partner 0.25 µM) with NCI-H322M, please?
output: 0.955

====

test system: NCI-H460; experiment: relative viability (nuclei count vs DMSO), 5 days (fraction); higher = more cells survive; settings: first compound 0.01581 µM
Can you tell me relative viability for the items I'm about to list?

Go through the items and report each one's relative viability.
1. Nc1ccn([C@@H]2O[C@H](CO)[C@@H](O)[C@@H]2O)c(=O)n1 [Cytarabine] + CC(C)C[C@H](NC(=O)[C@H](Cc1ccccc1)NC(=O)c1cnccn1)B(O)O [Bortezomib] (partner 0.002 µM)
2. Nc1ccn([C@@H]2O[C@H](CO)[C@@H](O)[C@@H]2O)c(=O)n1 [Cytarabine] + CC1(C)CCC(c2ccc(Cl)cc2)=C(CN2CCN(c3ccc(C(=O)NS(=O)(=O)c4ccc(N[C@H](CCN5CCOCC5)CSc5ccccc5)c(S(=O)(=O)C(F)(F)F)c4)cc3)CC2)C1 [Navitoclax] (partner 0.5 µM)

output:
[0.968, 1.16]

Go through the items and report each one's relative viability.
1. COc1cc2nccc(Oc3ccc(NC(=O)Nc4cc(C)on4)c(Cl)c3)c2cc1OC [Tivozanib] + NC(=O)Nc1cc(-c2cccc(F)c2)sc1C(=O)N[C@H]1CCCNC1 [AZD7762] (partner 0.2 µM)
2. Nc1ccn([C@@H]2O[C@H](CO)[C@@H](O)[C@@H]2O)c(=O)n1 [Cytarabine] + Nc1nc2[nH]cc(CCc3ccc(C(=O)N[C@@H](CCC(=O)O)C(=O)O)cc3)c2c(=O)[nH]1 [Pemetrexed] (partner 0.2 µM)

output:
0.689
0.0671

====

tested on: NCI-H647; test: relative viability (nuclei count vs DMSO), 5 days (fraction); higher = more cells survive; details: first compound 8 µM
Can you tell me relative viability for the items I'm about to list?
Numbers only.

Below, each entry is followed by its recorded relative viability result.
Compound	relative viability
O=c1[nH]c2ccccc2n1C1CCN(CCCC(c2ccc(F)cc2)c2ccc(F)cc2)CC1 [Pimozide] + CCNC(=O)c1noc(-c2cc(C(C)C)c(O)cc2O)c1-c1ccc(CN2CCOCC2)cc1 [Luminespib] (partner 0.01 µM)	0.109
O=c1[nH]c2ccccc2n1C1CCN(CCCC(c2ccc(F)cc2)c2ccc(F)cc2)CC1 [Pimozide] + COc1cccc2cc(-c3nc([C@H]4CC[C@H](C(=O)O)CC4)n4ncnc(N)c34)[nH]c12 [OSI-027] (partner 0.5 µM)	0.404
O=c1[nH]c2ccccc2n1C1CCN(CCCC(c2ccc(F)cc2)c2ccc(F)cc2)CC1 [Pimozide] + Nc1ncn([C@H]2C[C@H](O)[C@@H](CO)O2)c(=O)n1 [Decitabine] (partner 2 µM)	0.508
O=c1[nH]c2ccccc2n1C1CCN(CCCC(c2ccc(F)cc2)c2ccc(F)cc2)CC1 [Pimozide] + O=C(CCCCCCC(=O)Nc1ccccc1)NO [Vorinostat] (partner 1 µM)	0.431
O=c1[nH]c2ccccc2n1C1CCN(CCCC(c2ccc(F)cc2)c2ccc(F)cc2)CC1 [Pimozide] + Nc1nc2[nH]cc(CCc3ccc(C(=O)N[C@@H](CCC(=O)O)C(=O)O)cc3)c2c(=O)[nH]1 [Pemetrexed] (partner 0.2 µM)	0.128
O=c1[nH]c2ccccc2n1C1CCN(CCCC(c2ccc(F)cc2)c2ccc(F)cc2)CC1 [Pimozide] + Cc1nc(Nc2ncc(C(=O)Nc3c(C)cccc3Cl)s2)cc(N2CCN(CCO)CC2)n1 [Dasatinib] (partner 0.075 µM)	0.162
O=c1[nH]c2ccccc2n1C1CCN(CCCC(c2ccc(F)cc2)c2ccc(F)cc2)CC1 [Pimozide] + C[C@@H](Oc1cc(-c2cnn(C3CCNCC3)c2)cnc1N)c1c(Cl)ccc(F)c1Cl [Crizotinib] (partner 1 µM)	0.544

input: Recorded relative viability for O=c1[nH]c2ccccc2n1C1CCN(CCCC(c2ccc(F)cc2)c2ccc(F)cc2)CC1 [Pimozide] + Cc1nc(NC(=O)N2CCC[C@H]2C(N)=O)sc1-c1ccnc(C(C)(C)C(F)(F)F)c1 [Alpelisib] (partner 2 µM) with NCI-H647, please?
output: 0.554

====

test system: NCI-H2126; assay: relative viability (nuclei count vs DMSO), 5 days (fraction); higher = more cells survive; conditions: first compound 0.01581 µM
Quantity: relative viability
One number for each entry.

Below, each entry is followed by its recorded relative viability result.
Compound	Target System	relative viability
Nc1ccn([C@@H]2O[C@H](CO)[C@@H](O)[C@@H]2O)c(=O)n1 [Cytarabine] + O=C(CCCCCCC(=O)Nc1ccccc1)NO [Vorinostat] (partner 1 µM)	NCI-H2126	0.681
COc1cc2nccc(Oc3ccc(NC(=O)Nc4cc(C)on4)c(Cl)c3)c2cc1OC [Tivozanib] + COc1cc2c(Oc3ccc(NC(=O)C4(C(=O)Nc5ccc(F)cc5)CC4)cc3F)ccnc2cc1OCCCN1CCOCC1 [Foretinib] (partner 0.25 µM)	NCI-H2126	1.11

Go through the items and report each one's relative viability.
1. Nc1ccn([C@@H]2O[C@H](CO)[C@@H](O)[C@@H]2O)c(=O)n1 [Cytarabine] + CS(=O)(=O)N1CCN(Cc2cc3nc(-c4cccc5[nH]ncc45)nc(N4CCOCC4)c3s2)CC1 [Pictilisib] (partner 1 µM)
2. COc1cc2nccc(Oc3ccc(NC(=O)Nc4cc(C)on4)c(Cl)c3)c2cc1OC [Tivozanib] + C[C@]1(O)C[C@@H](c2nc(-c3ccc4ccc(-c5ccccc5)nc4c3)c3c(N)nccn32)C1 [Linsitinib] (partner 1 µM)
3. COc1cc2nccc(Oc3ccc(NC(=O)Nc4cc(C)on4)c(Cl)c3)c2cc1OC [Tivozanib] + O=C(c1cc(Cc2n[nH]c(=O)c3ccccc23)ccc1F)N1CCN(C(=O)C2CC2)CC1 [Olaparib] (partner 8 µM)
4. COc1cc2nccc(Oc3ccc(NC(=O)Nc4cc(C)on4)c(Cl)c3)c2cc1OC [Tivozanib] + CC(=O)c1c(C)c2cnc(Nc3ccc(N4CCNCC4)cn3)nc2n(C2CCCC2)c1=O [Palbociclib] (partner 0.5 µM)
5. Nc1ccn([C@@H]2O[C@H](CO)[C@@H](O)[C@@H]2O)c(=O)n1 [Cytarabine] + COc1cccc2cc(-c3nc([C@H]4CC[C@H](C(=O)O)CC4)n4ncnc(N)c34)[nH]c12 [OSI-027] (partner 0.5 µM)

output:
[0.432, 0.697, 0.907, 0.345, 0.626]
